The entries below come with measured IC50 values attached.
targetOrSystem: Cytochrome P450 3A4 (Homo sapiens, UniProt P08684)
Sequence (P08684 whole entry): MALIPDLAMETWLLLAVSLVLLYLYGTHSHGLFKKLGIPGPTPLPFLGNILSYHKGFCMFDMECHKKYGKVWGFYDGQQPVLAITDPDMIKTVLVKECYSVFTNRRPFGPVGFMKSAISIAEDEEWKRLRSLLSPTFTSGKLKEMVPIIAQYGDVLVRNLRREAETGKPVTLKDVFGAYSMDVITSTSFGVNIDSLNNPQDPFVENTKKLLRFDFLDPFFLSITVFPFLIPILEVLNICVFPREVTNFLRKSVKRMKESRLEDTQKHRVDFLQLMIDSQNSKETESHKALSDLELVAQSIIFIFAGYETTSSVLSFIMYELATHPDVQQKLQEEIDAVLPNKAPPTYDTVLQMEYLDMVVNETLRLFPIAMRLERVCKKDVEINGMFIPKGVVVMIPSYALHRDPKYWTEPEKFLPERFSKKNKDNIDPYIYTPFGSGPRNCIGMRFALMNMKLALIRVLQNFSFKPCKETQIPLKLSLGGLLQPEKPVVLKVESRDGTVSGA
protocolNotes: Inhibition of CYP3A4
Assay type: ADME
measurementType: IC50

[[record]]
smilescode = "CCCc1cc(-c2nc3c(s2)CCCC3)ccc1OCCCOc1ccc2c(c1)CC[C@H]2CC(=O)O"
measurementtype = "IC50"
valuemeasured = "> 10 µM"

[[record]]
smilescode = "O=C(O)C[C@@H]1CCc2cc(OCCCOc3ccc(-c4nc5c(s4)CCCC5)cc3)ccc21"
measurementtype = "IC50"
valuemeasured = "> 10 µM"


---

targetOrSystem: Peroxisome proliferator-activated receptor alpha (Homo sapiens, UniProt Q07869)
Sequence (Q07869 whole entry, the tested form may be a part): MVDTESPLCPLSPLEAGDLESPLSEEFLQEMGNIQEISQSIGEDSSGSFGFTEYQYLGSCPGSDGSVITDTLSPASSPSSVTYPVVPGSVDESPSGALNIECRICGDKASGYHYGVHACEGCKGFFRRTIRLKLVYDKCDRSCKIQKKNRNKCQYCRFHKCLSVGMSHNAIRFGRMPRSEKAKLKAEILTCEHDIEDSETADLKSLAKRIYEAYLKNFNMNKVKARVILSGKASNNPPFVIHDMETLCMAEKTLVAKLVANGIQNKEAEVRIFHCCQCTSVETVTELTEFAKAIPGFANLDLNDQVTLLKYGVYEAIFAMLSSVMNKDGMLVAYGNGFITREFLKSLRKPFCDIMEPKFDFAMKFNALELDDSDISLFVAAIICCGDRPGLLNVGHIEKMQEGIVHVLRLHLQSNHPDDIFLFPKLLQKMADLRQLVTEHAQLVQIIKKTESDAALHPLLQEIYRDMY
protocolNotes: Agonist activity at human PPAR alpha by FRET assay
Type: functional
measurementType: EC50 (nM)

[[record]]
smilescode = "CCCc1cc(-c2nc(C)c(C(=O)O)s2)ccc1OCCCOc1ccc2c(c1)CC[C@H]2CC(=O)O"
targetorsystem = "Peroxisome proliferator-activated receptor alpha (Homo sapiens, UniProt Q07869)"
valuemeasured = 1690

[[record]]
smilescode = "CCCc1cc(C(F)(F)F)ccc1OCCCOc1ccc2c(c1)CC[C@H]2CC(=O)O"
targetorsystem = "Peroxisome proliferator-activated receptor alpha (Homo sapiens, UniProt Q07869)"
valuemeasured = 1140

[[record]]
smilescode = "O=C(O)C[C@@H]1CCc2cc(OCCCOc3ccc(-c4ccoc4)cc3)ccc21"
targetorsystem = "Peroxisome proliferator-activated receptor alpha (Homo sapiens, UniProt Q07869)"
valuemeasured = 3270


---

targetOrSystem: Peroxisome proliferator-activated receptor delta (Homo sapiens, UniProt Q03181)
Sequence (Q03181 whole entry): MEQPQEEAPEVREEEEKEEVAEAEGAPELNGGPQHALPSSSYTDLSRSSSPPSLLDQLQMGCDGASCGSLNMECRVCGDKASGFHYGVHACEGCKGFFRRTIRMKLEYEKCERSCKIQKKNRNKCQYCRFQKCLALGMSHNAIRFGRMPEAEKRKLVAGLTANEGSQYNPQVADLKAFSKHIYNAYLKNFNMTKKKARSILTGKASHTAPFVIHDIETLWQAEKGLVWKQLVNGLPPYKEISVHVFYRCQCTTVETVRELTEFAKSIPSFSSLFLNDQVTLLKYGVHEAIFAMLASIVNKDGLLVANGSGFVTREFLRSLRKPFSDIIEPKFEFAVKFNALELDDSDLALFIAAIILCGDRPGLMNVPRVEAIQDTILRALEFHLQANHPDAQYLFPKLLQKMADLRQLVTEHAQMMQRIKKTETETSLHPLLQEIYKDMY
protocolNotes: Agonist activity at human PPAR delta by FRET assay
Assay type: functional
measurementType: EC50 (nM)

[[record]]
smilescode = "O=C(O)C[C@@H]1CCc2cc(OCCCOc3ccc(C(F)(F)F)cc3)ccc21"
valuemeasured = 4.2

[[record]]
smilescode = "CCCc1cc(C(F)(F)F)ccc1OCCCOc1ccc2c(c1)CC[C@H]2CC(=O)O"
valuemeasured = 1.6

[[record]]
smilescode = "COc1cc(-c2nc(C)c(C)s2)ccc1OCCCOc1ccc2c(c1)CC[C@H]2CC(=O)O"
valuemeasured = 4

[[record]]
smilescode = "O=C(O)C[C@@H]1CCc2cc(OCCCOc3ccc4cnoc4c3)ccc21"
valuemeasured = 828

[[record]]
smilescode = "CCCc1cc(-c2nccs2)ccc1OCCCOc1ccc2c(c1)CC[C@H]2CC(=O)O"
valuemeasured = 1.6

[[record]]
smilescode = "COc1cccc(OCCCOc2ccc3c(c2)CC[C@H]3CC(=O)O)c1"
valuemeasured = 117

[[record]]
smilescode = "O=C(O)C[C@@H]1CCc2cc(OCCCOc3ccc4ncoc4c3)ccc21"
valuemeasured = 130

[[record]]
smilescode = "O=C(O)C[C@@H]1CCc2cc(OCCCOc3ccc(-c4nc5c(s4)CCC5)cc3)ccc21"
valuemeasured = 1.3

[[record]]
smilescode = "O=C(O)C[C@@H]1CCc2cc(OCCCOc3ccc(-c4cccnc4)cc3)ccc21"
valuemeasured = 2.3

[[record]]
smilescode = "CCOc1nc(-c2ccc(OCCCOc3ccc4c(c3)CC[C@H]4CC(=O)O)c(OC)c2)sc1C"
valuemeasured = 6

[[record]]
smilescode = "COc1ccc(OCCCOc2ccc3c(c2)CC[C@H]3CC(=O)O)cc1"
valuemeasured = 6.7

[[record]]
smilescode = "COc1cc(-c2nc(C)c(C(=O)N(C)C)s2)ccc1OCCCOc1ccc2c(c1)CC[C@H]2CC(=O)O"
valuemeasured = 2.1

[[record]]
smilescode = "CCCc1cc(-c2nc(OCC)c(C)s2)ccc1OCCCOc1ccc2c(c1)CC[C@H]2CC(=O)O"
valuemeasured = 3.2

[[record]]
smilescode = "O=C(O)C[C@@H]1CCc2cc(OCCCOc3ccc(-c4cncnc4)cc3)ccc21"
valuemeasured = 11

[[record]]
smilescode = "CCOc1nc(-c2ccc(OCCCOc3ccc4c(c3)CC[C@H]4CC(=O)O)c(OC)c2)sc1CC"
valuemeasured = 5.4

[[record]]
smilescode = "COc1cc(-c2nc(OC(C)C)cs2)ccc1OCCCOc1ccc2c(c1)CC[C@H]2CC(=O)O"
valuemeasured = 3

[[record]]
smilescode = "CC(=O)c1sc(-c2ccc(OCCCOc3ccc4c(c3)CC[C@H]4CC(=O)O)cc2)nc1C"
valuemeasured = 6.9

[[record]]
smilescode = "Cc1cc2cc(OCCCOc3ccc4c(c3)CC[C@H]4CC(=O)O)ccc2[nH]1"
valuemeasured = 67

[[record]]
smilescode = "O=C(O)C[C@@H]1CCc2cc(OCCCOc3ccc(-c4nc5c(s4)CCCC5)cc3)ccc21"
valuemeasured = 2.2

[[record]]
smilescode = "COc1cc(-c2nc3ccccc3s2)ccc1OCCCOc1ccc2c(c1)CC[C@H]2CC(=O)O"
valuemeasured = 5.2

[[record]]
smilescode = "COc1cc(-c2nc(C)c(C(C)=O)s2)ccc1OCCCOc1ccc2c(c1)CC[C@H]2CC(=O)O"
valuemeasured = 3.4


---

targetOrSystem: Peroxisome proliferator-activated receptor alpha (Homo sapiens)
protocolNotes: Agonist activity at human PPAR alpha expressed in CV1 cells by GAL4 transactivation assay
Assay type: functional, cell-based, CV-1
measurementType: EC50 (nM)

[[record]]
smilescode = "CCCc1cc(-c2nc3c(s2)CCCC3)ccc1OCCCOc1ccc2c(c1)CC[C@H]2CC(=O)O"
measurementtype = "EC50"
displayunit = "nM"
valuemeasured = 5

[[record]]
smilescode = "O=C(O)C[C@@H]1CCc2cc(OCCCOc3ccc(-c4nc5c(s4)CCCC5)cc3)ccc21"
measurementtype = "EC50"
displayunit = "nM"
valuemeasured = 152


---

targetOrSystem: Peroxisome proliferator-activated receptor alpha (Homo sapiens)
protocolNotes: Agonist activity at human PPAR alpha by FRET assay
Assay type: functional
pEC50: −log10 of the molar value.
The threshold is inclusive: pEC50 of exactly 6 counts as label 1; values below receive label 0.

[[record]]
smilescode = "CCCc1ccccc1OCCCOc1ccc2c(c1)CC[C@H]2CC(=O)O"
targetorsystem = "Peroxisome proliferator-activated receptor alpha (Homo sapiens)"
labelvalue = "label 0"

[[record]]
smilescode = "O=C(O)C[C@@H]1CCc2cc(OCCCOc3ccc(-c4ccsc4)cc3)ccc21"
targetorsystem = "Peroxisome proliferator-activated receptor alpha (Homo sapiens)"
labelvalue = "label 0"

[[record]]
smilescode = "O=C(O)C[C@@H]1CCc2cc(OCCCOc3ccc4cnoc4c3)ccc21"
targetorsystem = "Peroxisome proliferator-activated receptor alpha (Homo sapiens)"
labelvalue = "label 0"

[[record]]
smilescode = "COc1ccncc1-c1ccc(OCCCOc2ccc3c(c2)CC[C@H]3CC(=O)O)cc1"
targetorsystem = "Peroxisome proliferator-activated receptor alpha (Homo sapiens)"
labelvalue = "label 0"

[[record]]
smilescode = "O=C(O)C[C@@H]1CCc2cc(OCCCOc3ccc(-c4nc5c(s4)CCCC5)cc3)ccc21"
targetorsystem = "Peroxisome proliferator-activated receptor alpha (Homo sapiens)"
labelvalue = "label 1"

[[record]]
smilescode = "CCOc1nc(-c2ccc(OCCCOc3ccc4c(c3)CC[C@H]4CC(=O)O)c(OC)c2)sc1C"
targetorsystem = "Peroxisome proliferator-activated receptor alpha (Homo sapiens)"
labelvalue = "label 1"

[[record]]
smilescode = "CCCc1cc(-c2nc(OCC)c(C)s2)ccc1OCCCOc1ccc2c(c1)CC[C@H]2CC(=O)O"
targetorsystem = "Peroxisome proliferator-activated receptor alpha (Homo sapiens)"
labelvalue = "label 1"

[[record]]
smilescode = "COc1cc(-c2nc3c(s2)CCCO3)ccc1OCCCOc1ccc2c(c1)CC[C@H]2CC(=O)O"
targetorsystem = "Peroxisome proliferator-activated receptor alpha (Homo sapiens)"
labelvalue = "label 1"

[[record]]
smilescode = "CCc1csc(-c2ccc(OCCCOc3ccc4c(c3)CC[C@H]4CC(=O)O)c(OC)c2)n1"
targetorsystem = "Peroxisome proliferator-activated receptor alpha (Homo sapiens)"
labelvalue = "label 1"

[[record]]
smilescode = "COc1cc(-c2nc(C)c(C(=O)O)s2)ccc1OCCCOc1ccc2c(c1)CC[C@H]2CC(=O)O"
targetorsystem = "Peroxisome proliferator-activated receptor alpha (Homo sapiens)"
labelvalue = "label 0"

[[record]]
smilescode = "Cc1cc2cc(OCCCOc3ccc4c(c3)CC[C@H]4CC(=O)O)ccc2[nH]1"
targetorsystem = "Peroxisome proliferator-activated receptor alpha (Homo sapiens)"
labelvalue = "label 0"

[[record]]
smilescode = "CCCc1cc(Oc2ccccc2)ccc1OCCCOc1ccc2c(c1)CC[C@H]2CC(=O)O"
targetorsystem = "Peroxisome proliferator-activated receptor alpha (Homo sapiens)"
labelvalue = "label 0"

[[record]]
smilescode = "CCCc1cc(-c2nc(OCC)cs2)ccc1OCCCOc1ccc2c(c1)CC[C@H]2CC(=O)O"
targetorsystem = "Peroxisome proliferator-activated receptor alpha (Homo sapiens)"
labelvalue = "label 1"

[[record]]
smilescode = "Cc1noc2cc(OCCCOc3ccc4c(c3)CC[C@H]4CC(=O)O)ccc12"
targetorsystem = "Peroxisome proliferator-activated receptor alpha (Homo sapiens)"
labelvalue = "label 0"

[[record]]
smilescode = "CCCc1cc(-c2nc3c(s2)CCCC3)ccc1OCCCOc1ccc2c(c1)CC[C@H]2CC(=O)O"
targetorsystem = "Peroxisome proliferator-activated receptor alpha (Homo sapiens)"
labelvalue = "label 1"

[[record]]
smilescode = "COc1cc(-c2nc3ccccc3s2)ccc1OCCCOc1ccc2c(c1)CC[C@H]2CC(=O)O"
targetorsystem = "Peroxisome proliferator-activated receptor alpha (Homo sapiens)"
labelvalue = "label 1"

[[record]]
smilescode = "COc1cc(C)ccc1OCCCOc1ccc2c(c1)CC[C@H]2CC(=O)O"
targetorsystem = "Peroxisome proliferator-activated receptor alpha (Homo sapiens)"
labelvalue = "label 0"

[[record]]
smilescode = "CCCc1cc(-c2nccs2)ccc1OCCCOc1ccc2c(c1)CC[C@H]2CC(=O)O"
targetorsystem = "Peroxisome proliferator-activated receptor alpha (Homo sapiens)"
labelvalue = "label 1"

[[record]]
smilescode = "Cc1noc2c(C)c(OCCCOc3ccc4c(c3)CC[C@H]4CC(=O)O)ccc12"
targetorsystem = "Peroxisome proliferator-activated receptor alpha (Homo sapiens)"
labelvalue = "label 0"

[[record]]
smilescode = "O=C(O)C[C@@H]1CCc2cc(OCCCOc3ccc4ncoc4c3)ccc21"
targetorsystem = "Peroxisome proliferator-activated receptor alpha (Homo sapiens)"
labelvalue = "label 0"

[[record]]
smilescode = "CCCc1cc(-c2nc3c(s2)CCC3)ccc1OCCCOc1ccc2c(c1)CC[C@H]2CC(=O)O"
targetorsystem = "Peroxisome proliferator-activated receptor alpha (Homo sapiens)"
labelvalue = "label 1"

[[record]]
smilescode = "O=C(O)C[C@@H]1CCc2cc(OCCCOc3ccccc3)ccc21"
targetorsystem = "Peroxisome proliferator-activated receptor alpha (Homo sapiens)"
labelvalue = "label 0"

[[record]]
smilescode = "CCCc1cc(C#N)ccc1OCCCOc1ccc2c(c1)CC[C@H]2CC(=O)O"
targetorsystem = "Peroxisome proliferator-activated receptor alpha (Homo sapiens)"
labelvalue = "label 0"

[[record]]
smilescode = "O=C(O)C[C@@H]1CCc2cc(OCCCOc3ccc(-c4ccccc4)cc3)ccc21"
targetorsystem = "Peroxisome proliferator-activated receptor alpha (Homo sapiens)"
labelvalue = "label 0"

[[record]]
smilescode = "CC(=O)c1sc(-c2ccc(OCCCOc3ccc4c(c3)CC[C@H]4CC(=O)O)cc2)nc1C"
targetorsystem = "Peroxisome proliferator-activated receptor alpha (Homo sapiens)"
labelvalue = "label 0"


Attribution: ChEMBL document CHEMBL1142242
